assay name: Compound was evaluated for the anticonvulsant activity in rats.
Format: organism-based
settings: rat, in vivo
readout: LD50

## Input Annotate the molecule CNc1ncnc2c1ncn2Cc1ccccc1F [BW-A78U] with its measured LD50.
## Output > 1000 mg/kg

All figures here come from ChEMBL document CHEMBL1123297.
